System: NCI-H322M lung
Experiment: NCI-60 one-dose screen, 48 h
Settings: 10 µM unless noted
Compounds without any hit were thinned out: in the full panel of roughly 83,000, 20% have a hit. Active and inactive are the calls of the source. The calls were made as follows: active = growth percent below 10; inactive = the rest.
Write down the outcome that applies. Available outcomes: active, inactive

Completed entries (count: 10):
Fill in: this test's call for COc1cccc2c1c(C(=O)C(=O)Nc1cc(C)no1)cn2Cc1ccc(F)cc1 is ___
inactive

Each compound tested received a call. Report the one for CC[C@H](C)[C@H](NC(=O)C12C3C4C1C1C2C3C41NC)C(=O)N(C)[C@H](C[C@@H](OC(C)=O)c1nc(C(=O)N[C@@H](Cc2ccccc2)C[C@H](C)C(=O)OC)cs1)C(C)C (stereo not given in full) .
inactive

Give the logged outcome of this assay for the following compound: COC(=O)[C@H](Cc1c[nH]c2ccccc12)NC(=O)[C@@H](OC)[C@@H]1Cc2cc3cc(OC4CC(OC5CC(O)C(O)C(C)O5)C(O)C(C)O4)c(C)c(O)c3c(O)c2C(=O)[C@H]1OC1CC(OC2CC(OC3CC(C)(O)C(O)C(C)O3)C(O)C(C)O2)C(O)C(C)O1 (stereo not given in full)
active

State the result this test recorded for c1cnc2[nH]cc(-c3csc(-c4cn(CCCCN5CCCCC5)c5ccccc45)n3)c2c1 .
inactive

Tell me the recorded outcome of this test for CN(CCCCN(C)CCOS(C)(=O)=O)CCOS(C)(=O)=O .
inactive

Give the logged outcome of this assay for the following compound: N#CC1(C#N)C(c2ccc(N(CCCl)CCCl)cc2)OC23CCCCC2C1(C#N)C(=N)O3 (stereo not given)
inactive

Which result was noted for this compound in the test: COC(=O)[C@@H](C)C[C@H](Cc1ccccc1)NC(=O)c1nc([C@@H](C[C@H](C(C)C)N(C)C(=O)[C@@H](NC(=O)[C@H]2CCCCN2C)C(C)C)OC(C)=O)sc1C
inactive

Could you check what this test reported for Cc1ccccc1NC(=NCCCN1CC1)Nc1ccccc1C ?
inactive

Recorded call for C=COC(=O)CCN1CC1 ?
inactive

Record lookup: outcome of this test for CCOC(=S)S[C@H]1C[C@@H]2[C@H](CC[C@]3(C)C(=O)CC[C@@H]23)[C@@]2(C)CCC(=O)C=C12 ?
inactive

Continuing:
Test call, this compound: C/C(=C\c1ccn(-c2ccc(N)cc2C(F)(F)F)n1)[C@@H]1C[C@@H]2O[C@]2(C)CCC[C@H](C)[C@H](O)[C@@H](C)C(=O)C(C)(C)[C@@H](O)CC(=O)O1
inactive

Hi, do you know how O=C1NC(=O)C(=Cc2cccn2CCCCCn2c3ccccc3c(=O)c3ccccc32)C(=O)N1 came out in this test?
inactive

Hello, I am checking results. What call was entered for COC(=O)[C@]12CCC(C)(C)C[C@H]1[C@H]1C(=O)C[C@@H]3[C@@]4(C)C[C@@]5(CC(C)(C)[C@@H]4CC[C@@]3(C)[C@]1(C)CC2)OO[C@@](C)(C(F)(F)F)O5 ?
inactive

Outcome? OCCCCCNC1CCCCC1
inactive

###

Test system: NCI-H23 lung
Experiment: NCI-60 one-dose screen, 48 h
Conditions: 10 µM unless noted
This is part of a sample that, as a whole, favours compounds with a hit. Of some 83,000 tested, about 20% had one in any assay. Active and inactive are the calls of the source. How the source made its calls: active means growth percent below 10; inactive means the rest.
Pick one: yes (1) (active), no (0) (inactive)

Please review the following examples before continuing.
Assay outcome for Cc1cc(N(CCCl)CCCl)ccc1C=Nc1ccc(-c2csc(Cc3ccccc3)n2)cc1 : what was it?
no (0)

Which outcome was assigned to CCOC(=O)[C@@H](C)C[C@H](Cc1ccccc1)NC(=O)c1csc([C@@H](C[C@H](C(C)C)N(C)C(=O)CNC(=O)[C@H]2CCCCN2C)OC(C)=O)n1 in this test?
no (0)

What did the test return for CC(=O)O[C@H]1C(=O)[C@@]2(C)[C@H]([C@H](OC(=O)c3ccccc3)[C@]3(O)C[C@H](OC(=O)[C@H](OC(=O)OC[C@@H]4COC(C)(C)O4)[C@@H](NC(=O)c4ccccc4)c4ccccc4)C(C)=C1C3(C)C)[C@]1(OC(C)=O)CO[C@@H]1C[C@@H]2O ?
no (0)

Kindly provide the recorded test outcome for the following compound: CC(C)CCC(=O)O[C@H]1CC[C@H]2[C@@H]3CCC4=CC(=O)CC[C@]4(C)[C@H]3CC[C@]12C
no (0)

New cases:
Test call, this compound: COC(=O)[C@H](Cc1c[nH]c2ccccc12)NC(=O)[C@@H](OC)[C@@H]1Cc2cc3cc(OC4CC(OC5CC(O)C(O)C(C)O5)C(O)C(C)O4)c(C)c(O)c3c(O)c2C(=O)[C@H]1OC1CC(OC2CC(OC3CC(C)(O)C(O)C(C)O3)C(O)C(C)O2)C(O)C(C)O1 (stereo partly specified)
yes (1)

Query: recorded result category for O=C1C2CC=CCC2C(=O)N1SC(Cl)(Cl)Cl (stereo unspecified) in this test
no (0)

###

Test system: SNB-75 CNS
Assay: NCI-60 one-dose screen, 48 h
Settings: 10 µM unless noted
The panel holds about 83,000 compounds, 20% with a hit somewhere; the sample as a whole holds those more often. The source made the active and inactive calls. How the source made its calls: active means growth percent below 10; inactive means the rest.
In this exercise, the only acceptable responses are T = active, F = inactive

Worked cases, answers included:
Please share the test call associated with C=CCc1cc2c(cc1OCC)OCO2 .
F

Per the assay record, what outcome was assigned to CC(=O)[O][Hg][c]1c(N)c(C)cc(C)c1F ?
F

Test call for this compound, please: Cn1cc(-c2csc(-c3cn(CCCCN4CCCCC4)c4ccc(F)cc34)n2)c2cccnc21
F

Tell me the recorded outcome of this test for O=P1(NCCCl)OCCCN1CCCl (configuration not stated) .
F

Could you now look at the following compound, please?
For C[N+]12CN3CN(CN(C3)C1)C2 , which call appears in the assay record?
F

###

System: PC-3 prostate
Assay: NCI-60 one-dose screen, 48 h
Settings: 10 µM unless noted
Compounds without any hit were thinned out: in the full panel of roughly 83,000, 20% have a hit. The source made the active and inactive calls. Rule for the calls: active = growth percent below 10; inactive = the rest.
A correct response names exactly one class from y = active, n = inactive

Sample answers from the record:
Given O=[N+]([O-])c1cc([N+](=O)[O-])c(Cl)cc1Cl , state the outcome it received in this test.
y

So what was the verdict on CC1(C)C(C(=O)c2cn(CCCCF)c3ccccc23)C1(C)C in this test?
n

Would you mind telling me which call this test gave C=COC(=O)CCN1CC1 ?
n

What was the test verdict on Cc1sc2c(c1C)C(c1ccc(Cl)cc1)=N[C@@H](CC(=O)OC(C)(C)C)c1nnc(C)n1-2 ?
n

What did the test return for COc1cc2c(=O)n(C3CCCCCCC3)c3c4cc[nH]c4ncc3c2cc1OC ?
n

Please find the next molecule below.
Please let me know the test result on file for Clc1ccc(CO/N=C(\Cn2ccnc2)c2ccc(Cl)cc2Cl)c(Cl)c1 .
y

###

Test system: NCI-H460 lung
Assay: NCI-60 one-dose screen, 48 h (100 = growth as untreated, 0 = no growth, -100 = all killed)
Conditions: 10 µM unless noted
This is part of a sample that, as a whole, favours compounds with a hit. Of some 83,000 tested, about 20% had one in any assay.
test.readout: growth (%)
Only the number, expressed in %, is required.

Solved cases below.
Any idea what growth was measured for CCOP(=O)(Nc1ccc2c(c1)/C(=N/NC(N)=S)c1ccccc1-2)OCC ?
104

What value of measured growth is listed for COc1ccc(Nc2ccc([N+](=O)[O-])cc2[N+](=O)[O-])cc1CN(CCCl)CCCl ?
7.13

Would you mind telling me what growth value was observed for CCC(C)(C)[C@H](NC(=O)[C@H]1CCCCN1C)C(=O)N(C)[C@H](C[C@@H](OC(C)=O)c1nc(C(=O)N[C@@H](Cc2ccccc2)C[C@H](C)C(=O)O)cs1)C(C)C ?
5.25

# lookup: growth of O=C([O][Hg][c]1ccccc1)c1ccccc1
11.7

Continue with the next molecule.
Requested field: growth. Item: O=C(O)c1c(Cl)n(Cc2ccc(O)cc2)c2ccc(O)cc12
106

###

Tested on: BT-549 breast
Test: NCI-60 one-dose screen, 48 h
Settings: 10 µM unless noted
Compounds without any hit were thinned out: in the full panel of roughly 83,000, 20% have a hit. Calls of active or inactive are those of the source. The calls were made as follows: active = growth percent below 10; inactive = the rest.
Give one outcome, nothing more. List: t (active), f (inactive)

I would be grateful if you could indicate the recorded call for COc1ccc(O)c(CNC(=O)CN2CCCC2=O)c1 .
f

# fetch the recorded call for C/C(=C\c1ccn(-c2ccccc2N)n1)[C@@H]1C[C@@H]2O[C@]2(C)CCC[C@H](C)[C@H](O)[C@@H](C)C(=O)C(C)(C)[C@@H](O)CC(=O)O1 here
f

What outcome does the record of this test show for CN1C(=O)C(=Cc2cn(Cc3ccccc3)c3ccccc23)C(=O)N(C)C1=O ?
f

Tell me the assay call for C/C(Cc1ccc(Cl)cc1)=C(\c1ccc(OCCN2CCOCC2)cc1)c1ccc(OC(=O)Cc2ccccc2)cc1 please.
f

Hi, sorry to bother you, what did the test record for CC1(C)C(C(=O)c2cn(CCCCF)c3ccccc23)C1(C)C ?
f

Dear colleague, could you share the recorded outcome for O=C(CC1(O)C(=O)N(Cc2ccccc2)c2ccc(Cl)cc21)c1ccc(C(=O)NCC2CCC3(CC2)OOC2(CCCCC2)OO3)cc1 (configuration not stated) when you have a moment?
f

Which outcome was entered for the compound COP(=S)(N1CC1)N1CC1 in this test?
f
